tested on: Staphylococcus aureus; assay: Bactericidal activity against clinically isolated Methicillin-resistant Staphylococcus aureus assessed as inhibition of bacterial growth measured after 48 hrs by agar plate method; type: functional
Sorting guide: entries reporting MBC beneath 60 µM go in the condition met pile, the rest go in the condition not met pile.

[[record]]
compound_structure_string = "Cc1ccc(C(C)C)c(OCc2cn(CCCN3C(=O)C(=O)c4cc(Cl)ccc43)nn2)c1"
test_target = "Staphylococcus aureus"
class_name = "condition not met"

[[record]]
compound_structure_string = "Cc1ccc(C(C)C)c(OCc2cn(CCCN3C(=O)C(=O)c4cc(C)ccc43)nn2)c1"
test_target = "Staphylococcus aureus"
class_name = "condition met"

[[record]]
compound_structure_string = "Cc1ccc(C(C)C)c(OCc2cn(CCCN3C(=O)C(=O)c4cc(I)ccc43)nn2)c1"
test_target = "Staphylococcus aureus"
class_name = "condition not met"

[[record]]
compound_structure_string = "COc1ccc2c(c1)C(=O)C(=O)N2CCCn1cc(COc2cc(C)ccc2C(C)C)nn1"
test_target = "Staphylococcus aureus"
class_name = "condition met"

[[record]]
compound_structure_string = "Cc1ccc(C(C)C)c(OCc2cn(CCCN3C(=O)C(=O)c4ccccc43)nn2)c1"
test_target = "Staphylococcus aureus"
class_name = "condition met"

[[record]]
compound_structure_string = "Cc1ccc(C(C)C)c(OCc2cn(CCCN3C(=O)C(=O)c4cc(F)ccc43)nn2)c1"
test_target = "Staphylococcus aureus"
class_name = "condition met"

[[record]]
compound_structure_string = "Cc1ccc(C(C)C)c(OCc2cn(CCCN3C(=O)C(=O)c4cc(Br)ccc43)nn2)c1"
test_target = "Staphylococcus aureus"
class_name = "condition not met"

[[record]]
compound_structure_string = "Cc1ccc(C(C)C)c(OCc2cn(CCN3C(=O)C(=O)c4ccccc43)nn2)c1"
test_target = "Staphylococcus aureus"
class_name = "condition not met"

